- ASSAY NOTES: Pharmacokinetic studies in male Friesian-Holstein cattle, IV and IM (Ridgeway)
- Format: in vivo
- TEST CONTEXT: male, Holstein-Friesian cross, bovine, blood, iv, 2 mg/kg, cattle; IV 2 mg/kg; individual animals 1644, 3646, 7643; read-out: Half-life (converted)
REPORTED ENDPOINT: half-life (h)
Could you give me the number in h? Just the number is fine.

// sample CC(C)CS(=O)(=O)N[C@H]1CC[C@H](Nc2nc(N)c(C(=O)c3c(F)cc(CN(C)C)cc3F)s2)CC1 , its half-life was 6

---

Recorded pEC50 values for a group of compounds are listed next.
- Tested on: T. vivax
- ASSAY NOTES: Ex vivo drug sensitivity assay, T. vivax (STIB 719/ILRAD 560)
- Assay type: cell-based
- TEST CONTEXT: Trypanosoma vivax
Worth noting: pEC50 values are minus log10 of concentrations stated in mol/L.

Consider the worked cases shown below.
CC(C)CS(=O)(=O)N[C@H]1CC[C@H](Nc2nc(N)c(C(=O)c3c(Cl)cc(CN(C)C)cc3Cl)s2)CC1.Cl	10.30
CC(C)CS(=O)(=O)N[C@H]1CC[C@H](Nc2nc(N)c(C(=O)c3c(F)cc(CN)cc3F)s2)CC1.Cl	9.30
CC(C)CS(=O)(=O)N[C@H]1CC[C@H](Nc2nc(N)c(C(=O)c3c(F)cc(CN(C)C)cc3F)s2)CC1	10.10

// sample CC(C)CS(=O)(=O)N[C@H]1CC[C@H](Nc2nc(N)c(C(=O)c3c(Cl)cccc3Cl)s2)CC1 , its pEC50 was 9.33

---

- ASSAY NOTES: Pharmacokinetic studies in male Friesian-Holstein cattle, IV and IM (Ridgeway)
- Format: in vivo
- TEST CONTEXT: male, Holstein-Friesian cross, bovine, whole blood, iv, 2.5 mg/kg, cattle; IV 2.5 mg/kg; n = 4; mean ± SD; read-out: Vdss
REPORTED ENDPOINT: Vd (L/kg)
Could you give me the number in L/kg? Just the number is fine.

// sample CC(C)CS(=O)(=O)N[C@H]1CC[C@H](Nc2nc(N)c(C(=O)c3c(F)cccc3F)s2)CC1 , its Vd was 2.4
